Recorded pEC50 by entry
Target: T1, human CD24 (human, UniProt P25063 27-59, heavily glycosylated, GPI-anchored (as described in the background))
T1 construct: whole, on cells; Target of all cell-based FACS assays; also called hCD24; Cluster of differentiation 24
T1 chain (looked up): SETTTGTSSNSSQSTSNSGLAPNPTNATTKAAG
Assay: FACS, H1975 cells
In simple prose, pEC50 is minus the logarithm base ten of a concentration in moles per litre.

Would you please look over these solved cases?
[
  {
    "binder": "81A1F8 (antibody, V domains shown, mouse monoclonal antibody) VH: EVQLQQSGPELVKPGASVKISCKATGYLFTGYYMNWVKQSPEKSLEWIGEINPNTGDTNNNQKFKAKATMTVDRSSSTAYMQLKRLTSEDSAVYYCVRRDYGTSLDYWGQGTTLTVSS VL: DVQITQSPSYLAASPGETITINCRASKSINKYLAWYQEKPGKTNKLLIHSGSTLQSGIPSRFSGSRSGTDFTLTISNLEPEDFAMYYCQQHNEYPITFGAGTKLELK",
    "pEC50": 8.69
  },
  {
    "binder": "110D4G4 (antibody, V domains shown, mouse monoclonal antibody; also called mAb-110D4G4) VH: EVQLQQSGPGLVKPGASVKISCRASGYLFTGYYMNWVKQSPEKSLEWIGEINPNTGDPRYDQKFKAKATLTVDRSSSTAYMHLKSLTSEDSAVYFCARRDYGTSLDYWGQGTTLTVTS VL: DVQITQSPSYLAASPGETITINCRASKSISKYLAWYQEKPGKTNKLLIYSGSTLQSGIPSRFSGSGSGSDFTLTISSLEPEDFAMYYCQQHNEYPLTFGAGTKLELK",
    "pEC50": 8.28
  }
]

Task: Any idea what its pEC50 is? The binder is SN3 (antibody, V domains shown) VH: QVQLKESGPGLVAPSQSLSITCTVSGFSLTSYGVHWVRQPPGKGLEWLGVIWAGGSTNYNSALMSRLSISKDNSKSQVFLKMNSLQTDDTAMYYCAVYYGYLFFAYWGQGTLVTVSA VL: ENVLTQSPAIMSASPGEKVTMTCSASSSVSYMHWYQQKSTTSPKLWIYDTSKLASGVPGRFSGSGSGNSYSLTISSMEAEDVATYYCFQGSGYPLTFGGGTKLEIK
Output: 8.08
